assay-system: human orexin type 2 receptor (hOX2R) (Homo sapiens, UniProt O43614)
Construct: expressed in transfected cells
Sequence (O43614 whole entry): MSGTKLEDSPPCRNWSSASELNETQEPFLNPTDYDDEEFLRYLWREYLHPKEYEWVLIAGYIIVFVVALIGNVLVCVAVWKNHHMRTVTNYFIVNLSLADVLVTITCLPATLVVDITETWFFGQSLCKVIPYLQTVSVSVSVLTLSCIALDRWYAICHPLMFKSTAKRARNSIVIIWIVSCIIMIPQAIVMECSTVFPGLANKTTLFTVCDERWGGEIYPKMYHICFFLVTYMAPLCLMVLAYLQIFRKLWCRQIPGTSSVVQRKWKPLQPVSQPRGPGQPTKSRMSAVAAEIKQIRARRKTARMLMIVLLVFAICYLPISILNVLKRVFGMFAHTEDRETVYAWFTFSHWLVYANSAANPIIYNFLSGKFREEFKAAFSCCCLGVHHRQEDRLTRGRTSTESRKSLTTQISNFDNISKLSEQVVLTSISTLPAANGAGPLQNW
test-method-notes: Measurement of orexin type 2 receptor agonist activity (FLIPR calcium fluorescence)
Type: cell-based
experimental-conditions: CHO cells expressing hOX2R, FLIPR calcium fluorescence; read-out: hOx2 pEC50 (converted)
readout-kind: EC50

# compound, readout-kind, result
rows = [
    ("CS(=O)(=O)N[C@@H]1[C@H](Cc2cccc(-c3ccccc3)c2F)N(C(=O)NC[C@H]2CCO2)CC12CC2 [Compound 331]", "EC50", "1 to 10 nM"),
    ("CC(C)(O)C(=O)N1CC2(CC2)[C@H](NS(=O)(=O)CF)[C@@H]1Cc1cc(F)cc(-c2cc(F)cc(F)c2)c1F [Compound 419]", "EC50", "1 to 10 nM"),
    ("N#C[C@]1(C(=O)N2CC3(CC3)[C@H](NS(=O)(=O)CF)[C@@H]2Cc2cccc(-c3ccccc3)c2F)CCO1 [Compound 226]", "EC50", "1 to 10 nM"),
    ("O=C([C@H]1CCO1)N1CC2(CC2)[C@H](NS(=O)(=O)C2CC2)[C@@H]1Cc1cccc(-c2cc(F)cc(F)c2)c1F [Compound 223]", "EC50", "0.0794 to 1 nM"),
]
